- System: HCT-116
- protocol.details: NCI tumour cell line growth inhibition, 48 h
Calls of active or inactive are those of the source. Cut-off read from the data, not from the text of the source: active = GI50 up to about 1.1 µM and inactive = higher.
experimental.readout: GI50

Example cases with answers are listed next.
- compound: "COc1ccc(/C=C2/CCCC/C2=N/O)cc1"
  GI50: "87.7 µM (inactive)"
- compound: "C=C(C)[C@@]1(O)CCC[C@H]1NC(=O)OC(C)(C)C"
  GI50: "> 100 µM (inactive)"
- compound: "C/C(=C\\c1ccccc1)n1c(=O)cc(C)n1C"
  GI50: "> 100 µM (inactive)"
- compound: "O=C1NC(=S)NC(=O)C1C(c1ccc(O)cc1)C1C(=O)NC(=S)NC1=O.c1ccncc1"
  GI50: "> 100 µM (inactive)"
- compound: "CSc1nc(NC2OCC(O)C(O)C2O)c(N)c(=O)n1C (stereo not given)"
  GI50: "> 100 µM (inactive)"
- compound: "CS(=O)(=O)OCCn1cnc2nc(NC(=O)c3ccccc3)[nH]c(=O)c21"
  GI50: "> 100 µM (inactive)"
- compound: "CC(=O)/C=c1\\[nH]/c(=C\\C=C\\c2ccccc2)c(=O)n1/C=C1\\C(=O)Oc2ccccc2C1=O"
  GI50: "> 100 µM (inactive)"
- compound: "C[C@]12CCC[C@H](Cl)C1(O)C[C@H](C(=O)O)CC2 (stereo not given in full)"
  GI50: "> 100 µM (inactive)"
- compound: "COc1cc(C(=O)N2CCc3c([nH]c4c([N+](=O)[O-])c(OC)ccc34)C2C)cc(OC)c1OC (stereo not given)"
  GI50: "> 100 µM (inactive)"

We now examine a further compound.
Q: Recorded GI50 for COc1cc([C@@H]2c3cc4c(cc3[C@@H](NCc3ccc(C#N)cc3)C3COC(=O)[C@@H]32)OCO4)cc(OC)c1O (stereo not given in full) with HCT-116, please?
Ans: 1.19 µM (inactive)

* * *

- Tested on: HOP-18
- protocol.details: NCI tumour cell line growth inhibition, 48 h
Active and inactive are the calls of the source. No stated cut-off is given here; in the data, active = GI50 up to about 1.1 µM and inactive = higher.
Please reply with one of these outcomes: 1.0 = active, 0.0 = inactive

Solved cases below.
- compound: "CN(C)CN(C)c1nc(N(C)C)nc(N(C)CN(C)C)n1"
  group.label: 0.0
- compound: "Cc1nn(C)cc1P(=S)(c1ccccc1)c1ccccc1"
  group.label: 0.0
- compound: "Fc1ccc(C2SCc3nc4ccccc4n32)cc1 (stereo unspecified)"
  group.label: 1.0
- compound: "CC(C)N1C(C)[C@@H](c2ccccc2)O[P@@]1(=O)CC1=CCCCC1 (stereo partly specified)"
  group.label: 0.0
- compound: "NC(CCC(=O)Nc1ccc(O)cc1)C(=O)O (stereo unspecified)"
  group.label: 0.0
- compound: "Cc1c(Cl)ccc2c1NC(=O)C2(O)CC(=O)c1ccc(Cl)cc1 (stereo unspecified)"
  group.label: 0.0
- compound: "CCNC(=O)COc1ccc(Br)cc1Br"
  group.label: 0.0
- compound: "CS(=O)(=O)OCCn1cnc2nc(NC(=O)c3ccccc3)[nH]c(=O)c21"
  group.label: 0.0
- compound: "C=C[C@]1(C)CCC2=C(CCC3C2(C)CCC[C@@]3(C)COC(C)=O)C1 (stereo partly specified)"
  group.label: 0.0
- compound: "COc1ccc(N/N=C(\\CCN(C)C)c2ccccc2)cc1"
  group.label: 0.0

// switching to the query compound
Q: Just curious, what result did NC(=O)C(=O)CC(=O)c1ccccc1NC1=CC(=O)C(=O)c2ccccc21 get here?
Ans: 0.0
